- SETUP_CONDITIONS: in acetone, 318.15 K
MEASURE: solubility (mole fraction)

Ask: Please look up its solubility (mole fraction): "O=C(N[C@H](Cc1c[nH]c2ccccc12)C(=O)O)OCC1c2ccccc2-c2ccccc21"
Reply: 0.059

* * *

- SETUP_CONDITIONS: in acetone, 298.15 K
MEASURE: solubility (mole fraction)
Just the number, please.

Ask: Sample "O=C(N[C@H](Cc1c[nH]c2ccccc12)C(=O)O)OCC1c2ccccc2-c2ccccc21" — what was its solubility (mole fraction)?
Reply: 0.0432

* * *

- SETUP_CONDITIONS: in ethanol, 293.15 K
MEASURE: solubility (mole fraction)
I'd appreciate a reply containing only the number, no unit.

Ask: State the recorded solubility (mole fraction) for this entry: "O=C(N[C@H](Cc1c[nH]c2ccccc12)C(=O)O)OCC1c2ccccc2-c2ccccc21"
Reply: 0.00492

* * *

- SETUP_CONDITIONS: in n-propyl acetate, 303.15 K
MEASURE: solubility (mole fraction)
Enter the number alone.

Ask: Form field: reported solubility (mole fraction) of "O=C(N[C@H](Cc1c[nH]c2ccccc12)C(=O)O)OCC1c2ccccc2-c2ccccc21"
Reply: 0.00595

* * *

- SETUP_CONDITIONS: in acetone, 313.15 K
MEASURE: solubility (mole fraction)
Write the value as a bare number.

Ask: Which value of solubility (mole fraction) has been reported for "O=C(N[C@H](Cc1c[nH]c2ccccc12)C(=O)O)OCC1c2ccccc2-c2ccccc21" in the records?
Reply: 0.0533

* * *

- SETUP_CONDITIONS: in n-butanol, 318.15 K
MEASURE: solubility (mole fraction)

Ask: Query (compound): "O=C(N[C@H](Cc1c[nH]c2ccccc12)C(=O)O)OCC1c2ccccc2-c2ccccc21" ; field requested: solubility (mole fraction)
Reply: 0.00656

* * *

- SETUP_CONDITIONS: in isobutanol, 293.15 K
MEASURE: solubility (mole fraction)
Write the number on its own, no unit after it.

Ask: Which value of solubility (mole fraction) has been reported for "O=C(N[C@H](Cc1c[nH]c2ccccc12)C(=O)O)OCC1c2ccccc2-c2ccccc21" in the records?
Reply: 0.00147

* * *

- SETUP_CONDITIONS: in isopropanol, 318.15 K
MEASURE: solubility (mole fraction)
Write no unit; give the number alone.

Ask: Which value of solubility (mole fraction) has been reported for "O=C(N[C@H](Cc1c[nH]c2ccccc12)C(=O)O)OCC1c2ccccc2-c2ccccc21" in the records?
Reply: 0.00642

* * *

- SETUP_CONDITIONS: in ethyl acetate, 303.15 K
MEASURE: solubility (mole fraction)

Ask: Which solubility (mole fraction) reading was recorded for the compound "O=C(N[C@H](Cc1c[nH]c2ccccc12)C(=O)O)OCC1c2ccccc2-c2ccccc21" ?
Reply: 0.00866

* * *

- SETUP_CONDITIONS: in n-propyl acetate, 318.15 K
MEASURE: solubility (mole fraction)
API note: the answer field is a bare number with no unit suffix.

Ask: Requested field: solubility (mole fraction). Item: "O=C(N[C@H](Cc1c[nH]c2ccccc12)C(=O)O)OCC1c2ccccc2-c2ccccc21"
Reply: 0.00793

* * *

- SETUP_CONDITIONS: in ethanol, 318.15 K
MEASURE: solubility (mole fraction)
Quick one: just the number, no unit, thanks!

Ask: Name the reported solubility (mole fraction) value associated with the compound "O=C(N[C@H](Cc1c[nH]c2ccccc12)C(=O)O)OCC1c2ccccc2-c2ccccc21"
Reply: 0.00893

* * *

- SETUP_CONDITIONS: in ethyl acetate, 308.15 K
MEASURE: solubility (mole fraction)
Answer using only a numeral; do not append any unit.

Ask: Can you look up the measured solubility (mole fraction) of "O=C(N[C@H](Cc1c[nH]c2ccccc12)C(=O)O)OCC1c2ccccc2-c2ccccc21" for me?
Reply: 0.00931

* * *

- SETUP_CONDITIONS: in ethanol, 283.15 K
MEASURE: solubility (mole fraction)
Answer with a bare number; do not write a unit.

Ask: Please look up its solubility (mole fraction): "O=C(N[C@H](Cc1c[nH]c2ccccc12)C(=O)O)OCC1c2ccccc2-c2ccccc21"
Reply: 0.00439

* * *

- SETUP_CONDITIONS: in ethanol, 303.15 K
MEASURE: solubility (mole fraction)
Field format: numeric only.

Ask: Need solubility (mole fraction) of "O=C(N[C@H](Cc1c[nH]c2ccccc12)C(=O)O)OCC1c2ccccc2-c2ccccc21" , thanks.
Reply: 0.00604

* * *

- SETUP_CONDITIONS: in n-butanol, 323.15 K
MEASURE: solubility (mole fraction)
// return a plain number; no unit text

Ask: Which measured solubility (mole fraction) value corresponds to "O=C(N[C@H](Cc1c[nH]c2ccccc12)C(=O)O)OCC1c2ccccc2-c2ccccc21" ?
Reply: 0.00807

* * *

- SETUP_CONDITIONS: in ethanol, 298.15 K
MEASURE: solubility (mole fraction)

Ask: Fill in the blank: the reported solubility (mole fraction) of "O=C(N[C@H](Cc1c[nH]c2ccccc12)C(=O)O)OCC1c2ccccc2-c2ccccc21" is ____.
Reply: 0.00538

* * *

- SETUP_CONDITIONS: in n-butyl acetate, 308.15 K
MEASURE: solubility (mole fraction)
Just the number, please, no unit after it.

Ask: Dear colleague, I am looking for the recorded solubility (mole fraction) of the following compound: "O=C(N[C@H](Cc1c[nH]c2ccccc12)C(=O)O)OCC1c2ccccc2-c2ccccc21"
Reply: 0.00533

* * *

- SETUP_CONDITIONS: in acetonitrile, 313.15 K
MEASURE: solubility (mole fraction)
// no unit, no text: just the number

Ask: # solubility (mole fraction) lookup, item "O=C(N[C@H](Cc1c[nH]c2ccccc12)C(=O)O)OCC1c2ccccc2-c2ccccc21"
Reply: 0.00382
